Target: Nav1.7 (or SCN9A) channel (Homo sapiens, UniProt Q15858)
Construct: expressed in transfected cells
Sequence (Q15858 whole entry): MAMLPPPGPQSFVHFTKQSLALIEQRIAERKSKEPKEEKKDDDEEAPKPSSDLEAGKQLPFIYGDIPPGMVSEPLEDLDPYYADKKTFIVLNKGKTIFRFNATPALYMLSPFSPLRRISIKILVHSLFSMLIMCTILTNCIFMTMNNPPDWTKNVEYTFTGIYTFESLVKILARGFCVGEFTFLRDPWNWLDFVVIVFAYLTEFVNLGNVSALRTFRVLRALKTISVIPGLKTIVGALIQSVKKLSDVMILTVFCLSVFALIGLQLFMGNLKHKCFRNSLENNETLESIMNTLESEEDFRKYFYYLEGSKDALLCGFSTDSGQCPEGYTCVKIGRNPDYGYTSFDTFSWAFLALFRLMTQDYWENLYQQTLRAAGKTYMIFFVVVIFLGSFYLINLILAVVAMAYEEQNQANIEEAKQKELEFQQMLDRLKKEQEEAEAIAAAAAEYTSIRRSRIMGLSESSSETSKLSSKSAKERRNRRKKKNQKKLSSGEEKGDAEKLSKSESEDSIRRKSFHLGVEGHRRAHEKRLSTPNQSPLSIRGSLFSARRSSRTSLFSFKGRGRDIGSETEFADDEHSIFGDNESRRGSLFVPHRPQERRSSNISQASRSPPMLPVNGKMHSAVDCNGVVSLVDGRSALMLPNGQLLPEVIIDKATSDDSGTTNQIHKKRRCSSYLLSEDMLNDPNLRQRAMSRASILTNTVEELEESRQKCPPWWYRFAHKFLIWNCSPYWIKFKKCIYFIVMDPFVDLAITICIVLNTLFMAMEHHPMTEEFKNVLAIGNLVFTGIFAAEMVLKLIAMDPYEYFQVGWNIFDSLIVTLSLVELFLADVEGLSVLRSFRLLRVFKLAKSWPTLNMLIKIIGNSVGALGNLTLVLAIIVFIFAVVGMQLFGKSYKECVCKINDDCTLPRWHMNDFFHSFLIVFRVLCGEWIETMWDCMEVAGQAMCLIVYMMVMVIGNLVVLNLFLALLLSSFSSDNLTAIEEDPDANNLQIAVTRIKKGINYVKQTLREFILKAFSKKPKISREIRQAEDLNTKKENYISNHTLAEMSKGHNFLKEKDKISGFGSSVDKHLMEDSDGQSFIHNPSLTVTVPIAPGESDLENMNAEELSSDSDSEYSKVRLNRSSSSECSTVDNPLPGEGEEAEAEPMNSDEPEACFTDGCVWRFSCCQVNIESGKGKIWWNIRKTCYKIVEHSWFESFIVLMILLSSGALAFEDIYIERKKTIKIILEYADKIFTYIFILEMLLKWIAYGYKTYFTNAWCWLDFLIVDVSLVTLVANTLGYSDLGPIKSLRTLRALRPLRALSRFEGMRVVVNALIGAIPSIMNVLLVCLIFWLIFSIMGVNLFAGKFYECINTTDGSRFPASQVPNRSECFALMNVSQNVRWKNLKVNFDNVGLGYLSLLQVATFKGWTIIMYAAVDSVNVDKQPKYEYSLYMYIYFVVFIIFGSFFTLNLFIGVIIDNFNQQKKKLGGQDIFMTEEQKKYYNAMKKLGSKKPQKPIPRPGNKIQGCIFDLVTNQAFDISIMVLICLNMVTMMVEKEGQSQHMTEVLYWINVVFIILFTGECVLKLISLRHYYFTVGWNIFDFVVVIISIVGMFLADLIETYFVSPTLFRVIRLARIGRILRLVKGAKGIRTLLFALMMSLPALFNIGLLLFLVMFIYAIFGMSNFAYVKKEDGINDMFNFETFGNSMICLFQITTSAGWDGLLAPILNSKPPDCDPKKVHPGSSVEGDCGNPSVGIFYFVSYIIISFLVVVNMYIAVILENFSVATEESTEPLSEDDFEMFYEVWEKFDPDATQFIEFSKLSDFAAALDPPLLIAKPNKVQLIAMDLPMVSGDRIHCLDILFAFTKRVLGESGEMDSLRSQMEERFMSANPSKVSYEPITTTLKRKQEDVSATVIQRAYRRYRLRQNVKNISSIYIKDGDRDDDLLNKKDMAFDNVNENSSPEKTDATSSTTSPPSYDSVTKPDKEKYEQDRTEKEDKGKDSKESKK
Assay: Nav1.7 (hSCN9A) block in HEK cells, PatchXpress 7000 automated electrophysiology, estimated IC50 (EIC50)
Assay type: cell-based
Details: PatchXpress assay; HEK cells stably transfected with hSCN9A, voltage-clamped at V1/2 of inactivation
pIC50: −log10 of the molar value.
Reported property: pIC50

Consider the worked cases shown below.
C[C@@H](Oc1ncc(Oc2cc(F)c(C(=O)NS(C)(=O)=O)cc2Cl)cc1Cl)C(F)(F)F [Example 99]; 7.82
CS(=O)(=O)NC(=O)c1cc(F)c(Oc2cnc(OC3CCC(F)(F)CC3)c(Cl)c2)cc1F [Example 65]; 6.19
C[C@H](Oc1ncc(Oc2cc(F)c(C(=O)NS(C)(=O)=O)cc2Cl)cc1Cl)C(F)(F)F [Example 98]; 7.92
CS(=O)(=O)NC(=O)c1cc(F)c(Oc2cnc(N3C[C@H]4CC[C@@H]3C4)c(Cl)c2)cc1F [Example 131]; 7.15

[a] CS(=O)(=O)NC(=O)c1cc(F)c(Oc2cnc(N[C@@H]3CCC[C@H]3F)c(Cl)c2)cc1F [Example 144]
[b] CS(=O)(=O)NC(=O)c1cc(Cl)c(Oc2cnc(C3CC3)c(OC(F)(F)F)c2)cc1F [Example 110]
input: pIC50 comparison. Which is larger, a or b ? Answer with the label corresponding to your selection.
output: b
(b: 7.00, a: 6.31)
